For each entry below, report its MTD value.
experiment: in vivo; conditions: both, ICR, mouse, in vivo, iv
Give bare numbers, in mg/kg.

Observe how each entry below is paired with its result.
1. CCC(c1cccc(C(C)C2CC2)c1O)S(C)(=O)=O (centres unmarked) :: 9
2. CCS(=O)(=O)[C@@H](C)c1cccc([C@H](C)C2CC2)c1O :: 1.8

For every item in the list below, what is its measured MTD?
1. CC(C)c1cccc([C@H](C)C2CC2)c1O [Control group 3, ciprofol, reference compound]
2. CC(c1cccc(C(C)S(=O)(=O)C(C)C)c1O)C1CC1 (centres unmarked)
3. CC(C)c1cccc(C(C)[S+](C)[O-])c1O (centres unmarked)

Response given:
1: 3.1; 2: 22; 3: 10

* * *

For each entry below, report its Anesthesia induction time value.
tested on: ICR mice; assay: in vivo; conditions: mice, iv; administration to disappearance of righting reflex
One number for each entry, in s.

1) CC(C)c1cccc(C(C)S(C)(=O)=O)c1O (centres unmarked) :: 60
2) CCC(c1cccc(C(C)C2CC2)c1O)S(C)(=O)=O (centres unmarked) :: 2
3) CC(c1cccc(C(C)[S+](C)[O-])c1O)C1CC1 (centres unmarked) :: 2
4) CCS(=O)(=O)[C@H](C)c1cccc([C@H](C)C2CC2)c1O :: 2
5) CC(C)c1cccc(C(C)[S+](C)[O-])c1O (centres unmarked) :: 2
6) CC(c1cccc(C(C)S(C)(=O)=O)c1O)C1CC1 (centres unmarked) :: 2
7) CCS(=O)(=O)[C@@H](C)c1cccc([C@@H](C)C2CC2)c1O :: 2
8) CCS(=O)(=O)C(C)c1cccc(C(C)C2CC2)c1O (centres unmarked) :: 22
9) CCS(=O)(=O)[C@H](C)c1cccc([C@@H](C)C2CC2)c1O :: 2
10) CCS(=O)(=O)[C@@H](C)c1cccc([C@H](C)C2CC2)c1O :: 2

Moving on to another compound below.
Challenge: # lookup: Anesthesia induction time of CC(c1cccc(C(C)S(=O)(=O)C(C)C)c1O)C1CC1 (centres unmarked)
Response given: 5

* * *

molecular target: GABAA (α1β2γ2) receptor (Homo sapiens (Human), UniProt P14867+P18507+P47870); assay: Whole-cell patch-clamp of GABAA (α1β2γ2) receptor current in stably expressing HEK293 cells; assay type: cell-based; conditions: allosteric regulation, HEK293, -70 mV, n=3; read-out: EC50
Sequence (P14867 28-456 limits assumed): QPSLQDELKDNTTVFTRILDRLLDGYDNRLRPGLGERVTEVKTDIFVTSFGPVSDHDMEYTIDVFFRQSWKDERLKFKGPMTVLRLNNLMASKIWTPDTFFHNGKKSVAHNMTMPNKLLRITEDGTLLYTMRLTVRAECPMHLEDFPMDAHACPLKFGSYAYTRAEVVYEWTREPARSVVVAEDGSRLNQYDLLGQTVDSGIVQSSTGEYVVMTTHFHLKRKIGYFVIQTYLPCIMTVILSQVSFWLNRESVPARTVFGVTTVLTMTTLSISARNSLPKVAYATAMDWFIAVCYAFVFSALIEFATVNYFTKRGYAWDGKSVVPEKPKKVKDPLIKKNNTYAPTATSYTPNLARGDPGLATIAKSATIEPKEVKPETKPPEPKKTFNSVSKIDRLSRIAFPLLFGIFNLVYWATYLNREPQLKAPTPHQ
Sequence (P47870 26-512 limits assumed): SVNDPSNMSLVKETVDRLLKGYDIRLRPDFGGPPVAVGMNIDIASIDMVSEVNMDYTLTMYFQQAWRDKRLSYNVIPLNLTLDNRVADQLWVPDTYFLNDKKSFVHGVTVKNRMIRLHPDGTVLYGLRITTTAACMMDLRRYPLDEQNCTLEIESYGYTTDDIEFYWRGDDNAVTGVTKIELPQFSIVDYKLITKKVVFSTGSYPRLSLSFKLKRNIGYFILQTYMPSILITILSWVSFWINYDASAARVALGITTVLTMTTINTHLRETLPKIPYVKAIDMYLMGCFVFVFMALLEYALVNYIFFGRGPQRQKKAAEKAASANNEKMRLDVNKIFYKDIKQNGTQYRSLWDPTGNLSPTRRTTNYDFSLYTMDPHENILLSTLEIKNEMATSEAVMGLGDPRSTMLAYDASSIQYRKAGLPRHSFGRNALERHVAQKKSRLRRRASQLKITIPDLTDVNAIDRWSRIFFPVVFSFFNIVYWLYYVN
Sequence (P18507 40-475 limits assumed): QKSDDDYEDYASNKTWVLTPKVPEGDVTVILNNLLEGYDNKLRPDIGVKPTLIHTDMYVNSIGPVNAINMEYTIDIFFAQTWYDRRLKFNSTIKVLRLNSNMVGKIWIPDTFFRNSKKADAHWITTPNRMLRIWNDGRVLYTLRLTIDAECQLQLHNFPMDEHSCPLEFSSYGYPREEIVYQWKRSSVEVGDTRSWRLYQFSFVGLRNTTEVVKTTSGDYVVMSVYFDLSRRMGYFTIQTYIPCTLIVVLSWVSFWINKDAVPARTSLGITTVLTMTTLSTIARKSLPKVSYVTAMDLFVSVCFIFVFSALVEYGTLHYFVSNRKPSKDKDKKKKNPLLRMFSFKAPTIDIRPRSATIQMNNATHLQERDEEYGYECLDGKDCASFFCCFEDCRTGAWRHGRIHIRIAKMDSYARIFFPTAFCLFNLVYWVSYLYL
reported-endpoint: EC50 (µM)
Numbers only, in µM.

Challenge: # lookup: EC50 of CCS(=O)(=O)[C@@H](C)c1cccc([C@H](C)C2CC2)c1O [Compound 20]
Response given: 1.56

* * *

experiment: in vivo; type: in vivo, rats; details: both sexes, Sprague-Dawley, rat, in vivo, iv
reported-endpoint: MTD (mg/kg)
Numbers only, in mg/kg.

Challenge: # lookup: MTD of CC(C)c1cccc([C@H](C)C2CC2)c1O [Control group 3, ciprofol, reference compound]
Response given: 4

* * *

Biological target: GABAA (α1β2γ2) receptor (Homo sapiens (Human), UniProt P14867+P18507+P47870)
Experiment: Whole-cell patch-clamp of GABAA (α1β2γ2) receptor current in stably expressing HEK293 cells
Assay type: cell-based
Details: allosteric regulation, HEK293, text restatement; read-out: semi-activated concentration (EC50)
Text: Gamma-aminobutyric acid (GABA) was an important inhibitory amino acid neurotransmitter in the central nervous system, and functioned by binding to GABA receptors. […] HEK293 cell lines stably expressing the GABAA (α1β2γ2) receptor were used. […] The voltage stimulus of GABA receptor current recorded by a whole-cell patch-clamp technique was as follows: when whole-cell sealing was formed, the cell membrane voltage was clamped at −70 mV. […] Multiple cells were independently and repeatedly detected. […]
reported-endpoint: pEC50
Answers are plain numbers, as −log10 of the molar value.

Challenge: Request - read-out pEC50 | tested on GABAA (α1β2γ2) receptor (Homo sapiens (Human), UniProt P14867+P18507+P47870) | compound CCS(=O)(=O)[C@@H](C)c1cccc([C@H](C)C2CC2)c1O
Response given: 5.81

* * *

test: in vivo; assay type: in vivo, rats; details: both sexes, Sprague-Dawley, rat, in vivo, iv
reported-endpoint: LD50 (mg/kg)
One number for each entry, in mg/kg.

Challenge: # lookup: LD50 of CC(C)c1cccc([C@H](C)C2CC2)c1O [Control group 3, ciprofol, reference compound]
Response given: 5.6
